Experimental Target: human TrkA receptor (Homo sapiens (Human))
Sequence (P04629 33-796): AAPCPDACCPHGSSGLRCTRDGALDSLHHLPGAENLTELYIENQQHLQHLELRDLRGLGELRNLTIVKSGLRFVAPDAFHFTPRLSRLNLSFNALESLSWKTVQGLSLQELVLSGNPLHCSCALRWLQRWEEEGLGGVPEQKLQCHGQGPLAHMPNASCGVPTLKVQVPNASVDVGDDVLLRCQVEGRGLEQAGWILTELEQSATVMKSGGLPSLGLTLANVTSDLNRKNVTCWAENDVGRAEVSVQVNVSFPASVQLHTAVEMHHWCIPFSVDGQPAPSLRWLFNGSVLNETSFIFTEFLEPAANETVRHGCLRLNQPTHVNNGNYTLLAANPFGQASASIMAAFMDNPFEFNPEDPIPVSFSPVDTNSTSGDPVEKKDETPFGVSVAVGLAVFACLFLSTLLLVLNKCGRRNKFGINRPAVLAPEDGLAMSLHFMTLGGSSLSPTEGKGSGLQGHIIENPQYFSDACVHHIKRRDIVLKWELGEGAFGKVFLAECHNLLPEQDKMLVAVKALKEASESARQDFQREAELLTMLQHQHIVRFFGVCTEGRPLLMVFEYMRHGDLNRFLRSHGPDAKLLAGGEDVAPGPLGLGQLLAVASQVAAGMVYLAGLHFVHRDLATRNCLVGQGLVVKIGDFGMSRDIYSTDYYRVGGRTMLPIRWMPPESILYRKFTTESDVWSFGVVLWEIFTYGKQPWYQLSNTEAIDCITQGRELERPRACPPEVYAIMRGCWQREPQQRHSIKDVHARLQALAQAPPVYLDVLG
Assay Details: DiscoverX PathHunter TrkA functional assay (NGF-stimulated U2OS cells)
Format: cell-based
Test Conditions: U2OS cells expressing human TrkA-PK, Shc1-EA and p75NTR; compound 1 h, then NGF at ~80% of maximal response for 3 h; luminescence
Property: pIC50
// pIC50 is dimensionless: -log10 of concentration (M)

Solved cases below.
[ask] Provide one value: measured pIC50 of Cc1cc(C)n(-c2ccc(Cl)c(C(=O)Nc3cnc(C)nc3-c3ccccc3)c2)n1 [Example 9]
[reply] 6.85

[ask] Give reported pIC50 value for Cn1ccc(-c2cc(C(=O)Nc3cnc(CNC(N)=O)nc3-c3ccccc3)c(F)cc2C(F)(F)F)n1 [Example 76]
[reply] 9.08

[ask] Identify measured pIC50 associated with NC(=O)c1cnc(-c2ccccc2)c(NC(=O)c2cc(-c3cc[nH]n3)c(C(F)(F)F)cc2F)c1 [Example 93]
[reply] 8.24

[ask] Respond only with pIC50 recorded for C[C@@H](O)C(=O)NCc1ncc(NC(=O)c2cc(-c3ccn(C)n3)c(C(F)(F)F)cc2F)c(-c2ccccc2)n1 [Example 60]
[reply] 8.96

[ask] Look up pIC50 of Cn1ccc(-c2cc(C(=O)Nc3cc4c(nc3-c3ccccc3)CC(=O)NC4)c(F)cc2C(F)(F)F)n1 [Example 153] and report it.
[reply] 8.17

***
[ask] Answer with the recorded pIC50 of Cn1ccc(-c2cc(C(=O)Nc3ccc(CNC(=O)C(O)CO)nc3-c3ccccc3)c(F)cc2C(F)(F)F)n1 (single isomer, unassigned) [Example 61] only.
[reply] 9.19

[ask] Determine from records and report pIC50 for O=C(Nc1cnc(CO)nc1-c1ccccc1)c1ccc(C(F)(F)F)c(-c2cc[nH]n2)c1 [Example 36]
[reply] 7.62

[ask] Find the measured pIC50 of Cn1ccc(-c2cc(C(=O)Nc3ccc(CNC(=O)C(O)CO)nc3-c3ccccc3)c(F)cc2C(F)(F)F)n1 (single isomer, unassigned) [Example 62] and report it.
[reply] 9.10

[ask] Fill in reported pIC50 for this entry: NC(=O)c1cnc(-c2ccccc2)c(NC(=O)c2cc(-c3ncccn3)c(C(F)(F)F)cc2F)c1 [Example 91]
[reply] 7.96

[ask] Determine from records and report pIC50 for O=C(Nc1cc(Oc2ccccn2)cnc1-c1ccccc1)c1cc(-c2ncccn2)c(C(F)(F)F)cc1F [Example 167]
[reply] 7.62

[ask] Read the entry Cn1ccc(-c2cc(C(=O)Nc3cnc(CNS(C)(=O)=O)nc3-c3ccccc3)ccc2C(F)(F)F)n1 [Example 75] and write its reported pIC50.
[reply] 7.92

[ask] Output measured pIC50 for this item: Cn1ccc(-c2cc(C(=O)Nc3ncc(CN4CCOC4=O)nc3-c3ccccc3)c(F)cc2C(F)(F)F)n1 [Example 214]
[reply] 8.34

---

Experimental Target: human TrkA receptor (Homo sapiens (Human))
Assay Details: DiscoverX PathHunter TrkA functional assay (NGF-stimulated U2OS cells)
Test Conditions: U2OS cells expressing human TrkA-PK, Shc1-EA and p75NTR; compound 1 h, then NGF at ~80% of maximal response for 3 h; luminescence
// reported log10 of IC50 for each item listed
Scale: decimal log of IC50, IC50 in nM.

[ask] Please give the documented log10 of IC50 of Cn1ccc(-c2cc(C(=O)Nc3ccc(C4CNC(=O)N4)nc3-c3ccccc3)c(F)cc2C(F)(F)F)n1 (stereo not shown) [Example 215]
[reply] -0.44

Cited source for all entries: patent US9815846B2
